These entries and their values trace back to patent US6914045B2.

System: Staphylococcus sp.
ASSAY INFO: in vitro antibacterial evaluation, MIC by broth dilution
Assay type: cell-based
ASSAY CONTEXT: broth dilution, 18 hours at 35° C.; strain GC 3051
Numbered stars: 1 amine (or outer) side, 2 acyl side, 3 side chain; on linkers, the order of the positions; unused ones are H or OH. Square brackets hold non-standard residues; d marks the D form. Peptide text beside a SMILES is read from it. * marks the point of attachment. ξ: configuration not given here. X1 = N=C1NCC(C(O)C(N[*:1])C(=O)[*:2])N1C1OC(CO)C(O)C(O)C1O; ξEnduracididine(βξ-OH,4'ξ) = N=C1NCC(C(O)C(N)C(=O)O)N1; X2 = OCC1OC(OC2C(CO)OC(*)C(O)C2O)C(O)C(O)C1O
The following compounds are shown together with reported MIC Staphylococcus aureus (GC 3051) values.

[[record]]
compound = "CC(c1ccccc1)C1NC(=O)CNC(=O)C(CO)NC(=O)C(C(O)C2CNC(=N)N2C2OC(CO)C(O)C(O)C2O)NC(=O)C(C(O)C2CNC(=N)N2)NC(=O)C(Cc2ccc(OC3OC(CO)C(OC4OC(COCC=C(c5ccccc5)c5ccccc5)C(O)C(O)C4O)C(O)C3O)cc2)NC1=O (stereo not drawn)"
observed_measurement = "2 µg/mL"

[[record]]
compound = "N=C1NCC(C(O)C2NC(=O)C(Cc3ccc(OC4OC(CO)C(OC5OC(CO)C(O)C(O)C5O)C(O)C4O)cc3)NC(=O)C(Cc3ccccc3)NC(=O)CNC(=O)C(CO)NC(=O)C(C(O)C3CNC(=N)N3C3OC(CO)C(O)C(O)C3O)NC2=O)N1 (stereo not drawn) [Example 282] (cyclo(GFY(X2)[ξEnduracididine(βξ-OH,4'ξ)][X1]S); configuration not given here)"
observed_measurement = ">128 µg/mL"


Per the records, this compound ( CC(c1ccccc1)C1NC(=O)CNC(=O)C(CO)NC(=O)C(C(O)C2CNC(=N)N2C2OC(CO)C(O)C(O)C2O)NC(=O)C(C(O)C2CNC(=N)N2)NC(=O)C(Cc2ccc(OC3OC(CO)C(OC4OC(CO)C(OCC=C(c5ccccc5)c5ccccc5)C(O)C4O)C(O)C3O)cc2)NC1=O (stereo not drawn) [Example 241a] ) has MIC Staphylococcus aureus (GC 3051) equal to 2 µg/mL

----------
Test system: Enterococcus sp.
ASSAY INFO: in vitro antibacterial evaluation, MIC by broth dilution
Format: cell-based
ASSAY CONTEXT: broth dilution, 18 hours at 35° C.
Define the label as true (1) when MIC Enterococcus faecium (GC 4557) is strictly less than 4 µg/mL and as false (0) in all remaining cases.

[[record]]
molecule = "CC(c1ccccc1)C1NC(=O)CNC(=O)C(CO)NC(=O)C(CC2CN(Cc3ccccc3)C(=N)N2C2OC(CO)C(O)C(O)C2O)NC(=O)C(CC2CNC(=N)N2)NC(=O)C(Cc2ccc(OC3OC(CO)C(OC4OC5COC6(OC5C(O)C4O)C4CC5CC(C4)CC6C5)C(O)C3O)cc2)NC1=O (centres unmarked)"
assigned_class = "false (0)"

[[record]]
molecule = "CCCCCCCN1CC(C(O)C2NC(=O)C(C(O)C3CNC(=N)N3)NC(=O)C(Cc3ccc(OC4OC(CO)C(OC5OC(CO)C(O)C(O)C5O)C(O)C4O)cc3)NC(=O)C(C(C)c3ccccc3)NC(=O)CNC(=O)C(CO)NC2=O)N(C2OC(CO)C(O)C(O)C2O)C1=N (centres unmarked)"
assigned_class = "false (0)"


Exercise: Strictly below 4 µg/mL in MIC Enterococcus faecium (GC 4557)? CC(C1CCCCC1)C1NC(=O)CNC(=O)C(CO)NC(=O)C(C(O)C2CNC(=N)N2C2OC(CO)C(O)C(O)C2O)NC(=O)C(C(O)C2CNC(=N)N2)NC(=O)C(Cc2ccc(OC3OC(CO)C(OC4OC5COC(c6ccccc6)OC5C(O)C4O)C(O)C3O)cc2)NC1=O (centres unmarked)
Solution: true (1)

Exercise: is_below(MIC Enterococcus faecium (GC 4557), 4 µg/mL) for CC(c1ccccc1)C1NC(=O)CNC(=O)C(CO)NC(=O)C(C(O)C2CNC(=N)N2C2OC(CO)C(O)C(O)C2O)NC(=O)C(C(O)C2CNC(=N)N2)NC(=O)C(Cc2ccc(OC3OC(CO)C(OC4OC5COC(c6cccc(Oc7cccc(C(F)(F)F)c7)c6)OC5C(O)C4O)C(O)C3O)cc2)NC1=O (centres unmarked) ?
Solution: false (0)

Exercise: Hello, is MIC Enterococcus faecium (GC 4557) of the following molecule strictly smaller than 4 µg/mL? CC(c1ccccc1)C1NC(=O)CNC(=O)C(CO)NC(=O)C(C(O)C2CNC(=N)N2C2OC(CO)C(O)C(O)C2O)NC(=O)C(C(O)C2CNC(=N)N2)NC(=O)C(Cc2ccc(OC3OC(CO)C(OC4OC5COC6(CC7CCC6(C)C7(C)C)OC5C(O)C4O)C(O)C3O)cc2)NC1=O (centres unmarked)
Solution: true (1)

Exercise: # TODO verify MIC Enterococcus faecium (GC 4557) < 4 µg/mL strictly for this molecule: CC(c1ccccc1)C1NC(=O)CNC(=O)C(CO)NC(=O)C(C(O)C2CN(c3nc4ccccc4s3)C(=N)N2C2OC(CO)C(O)C(O)C2O)NC(=O)C(C(O)C2CNC(=Nc3nc4ccccc4s3)N2)NC(=O)C(Cc2ccc(OC3OC(CO)C(OC4OC(CO)C(O)C(O)C4O)C(O)C3O)cc2)NC1=O (centres unmarked)
Solution: false (0)

Exercise: State whether 4 µg/mL exceeds MIC Enterococcus faecium (GC 4557) recorded for CC(c1ccccc1)C1NC(=O)CNC(=O)C(CO)NC(=O)C(C(O)C2CNC(=N)N2C2OC(COC(=O)C(c3ccccc3)c3ccccc3)C(O)C(O)C2O)NC(=O)C(C(O)C2CNC(=N)N2)NC(=O)C(Cc2ccc(OC3OC(CO)C(OC4OC(CO)C(O)C(O)C4O)C(O)C3O)cc2)NC1=O (centres unmarked) .
Solution: false (0)

Exercise: Please state whether MIC Enterococcus faecium (GC 4557) is below 4 µg/mL for CC(c1ccccc1)C1NC(=O)CNC(=O)C(CO)NC(=O)C(C(O)C2CN(Cc3ccc(C(=O)O)cc3)C(=N)N2C2OC(CO)C(O)C(O)C2O)NC(=O)C(C(O)C2CNC(=N)N2)NC(=O)C(Cc2ccc(OC3OC(CO)C(OC4OC(CO)C(O)C(O)C4O)C(O)C3O)cc2)NC1=O (centres unmarked)
Solution: false (0)

Exercise: Please state whether MIC Enterococcus faecium (GC 4557) is below 4 µg/mL for CC(c1ccccc1)C1NC(=O)CNC(=O)C(CO)NC(=O)C(C(O)C2CN(Cc3ccccc3-c3ccccc3)C(=N)N2C2OC(CO)C(O)C(O)C2O)NC(=O)C(C(O)C2CNC(=N)N2)NC(=O)C(Cc2ccc(OC3OC(CO)C(OC4OC(CO)C(O)C(O)C4O)C(O)C3O)cc2)NC1=O (centres unmarked)
Solution: false (0)

Exercise: is_below(MIC Enterococcus faecium (GC 4557), 4 µg/mL) for CC(c1ccccc1)C1NC(=O)CNC(=O)C(CO)NC(=O)C(C(O)C2CNC(=N)N2C2OC(CO)C(O)C(O)C2O)NC(=O)C(C(O)C2CNC(=N)N2)NC(=O)C(Cc2ccc(OC3OC(COC(=O)C(c4ccccc4)c4ccccc4)C(OC4OC(CO)C(O)C(O)C4O)C(O)C3O)cc2)NC1=O (centres unmarked) [Example 96b] ?
Solution: true (1)

Exercise: Report whether reported MIC Enterococcus faecium (GC 4557) is lower than 4 µg/mL (strictly) for CN=C1N(C)CC(C(O)C2NC(=O)C(Cc3ccc(OC4OC(CO)C(OC5OC(CO)C(O)C(O)C5O)C(O)C4O)cc3)NC(=O)C(C(C)c3ccccc3)NC(=O)CNC(=O)C(CO)NC(=O)C(C(O)C3CN(C)C(=NC)N3C3OC(CO)C(O)C(O)C3O)NC2=O)N1C (centres unmarked)
Solution: false (0)

Exercise: Bench note: check whether CC(c1ccccc1)C1NC(=O)CNC(=O)C(CO)NC(=O)C(C(O)C2CN(c3ncccn3)C(=N)N2C2OC(CO)C(O)C(O)C2O)NC(=O)C(C(O)C2CNC(=Nc3ncccn3)N2)NC(=O)C(Cc2ccc(OC3OC(CO)C(OC4OC5COC6(OC5C(O)C4O)C4CC5CC(C4)CC6C5)C(O)C3O)cc2)NC1=O (centres unmarked) shows MIC Enterococcus faecium (GC 4557) below 4 µg/mL
Solution: false (0)

----------
Readings of MIC Enterococcus faecium (GC 4557) for the listed compounds
Tested on: Enterococcus sp.
ASSAY INFO: in vitro antibacterial evaluation, MIC by broth dilution
Assay type: cell-based
ASSAY CONTEXT: strain GC 4557; broth dilution, 18 hours at 35° C.
Just the number in µg/mL, nothing appended.

[[record]]
compound = "CCOc1cc(C2OCC3OC(OC4C(CO)OC(Oc5ccc(CC6NC(=O)C(C(C)c7ccccc7)NC(=O)CNC(=O)C(CO)NC(=O)C(C(O)C7CNC(=N)N7C7OC(CO)C(O)C(O)C7O)NC(=O)C(C(O)C7CNC(=N)N7)NC6=O)cc5)C(O)C4O)C(O)C(O)C3O2)ccc1OC (centres unmarked) [Example 152]"
target_entity = "Enterococcus sp."
unit_spec = "µg/mL"
observed_measurement = 16


Here is the next item to consider.
Item Cc1ccc(Oc2ccc(C3OCC4OC(OC5C(CO)OC(Oc6ccc(CC7NC(=O)C(C(C)c8ccccc8)NC(=O)CNC(=O)C(CO)NC(=O)C(C(O)C8CNC(=N)N8C8OC(CO)C(O)C(O)C8O)NC(=O)C(C(O)C8CNC(=N)N8)NC7=O)cc6)C(O)C5O)C(O)C(O)C4O3)cc2)cc1 (centres unmarked) [Example 174] ; assay system Enterococcus sp.; MIC Enterococcus faecium (GC 4557) reported as 2
